Biological target: T1, cMetECDHis (human, UniProt P08581 25-932, limits assumed, biotinylated in the cross-block ELISA of Example 17)
T1 construct: Expressed in HEK-293F cells; also called soluble cMetECDHis; biotinylated cMetECDHis
Test: BLI (Octet); antibody captured, cMetECDHis in solution
Kd by entry:

| Binder | Kd, nM |
| --- | --- |
| anti-c-Met HuMab 098 (IgG1) (antibody, V domains shown, also called TH1016-098; PC1016-098) VH: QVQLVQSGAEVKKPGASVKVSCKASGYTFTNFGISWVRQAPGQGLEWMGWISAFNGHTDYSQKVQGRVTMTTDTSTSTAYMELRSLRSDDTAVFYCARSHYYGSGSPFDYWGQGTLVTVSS VL: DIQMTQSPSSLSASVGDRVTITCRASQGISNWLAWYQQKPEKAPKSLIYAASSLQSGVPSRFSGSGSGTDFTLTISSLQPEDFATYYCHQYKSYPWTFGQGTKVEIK | 1.82 |
| anti-c-Met HuMab 005 (IgG1) (antibody, V domains shown, also called TH1016-005; PC1016-005) VH: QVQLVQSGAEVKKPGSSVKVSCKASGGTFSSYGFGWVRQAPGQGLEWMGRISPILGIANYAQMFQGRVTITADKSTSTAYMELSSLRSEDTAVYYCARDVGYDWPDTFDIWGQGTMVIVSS VL: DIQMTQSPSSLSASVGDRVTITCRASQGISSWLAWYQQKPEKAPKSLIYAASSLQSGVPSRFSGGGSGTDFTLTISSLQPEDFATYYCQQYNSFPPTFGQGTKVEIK | 7.92 |
